# Tested on: Escherichia coli TOP10
# assay.remarks: shrunken log2 fold change of peptide-encoding DNA abundance (4.5 h post-induction vs induction); higher = less antimicrobial activity (less host growth inhibition)
# experimental.setup: time post-induction: 4.5 h; library: site-saturation at positions 5, 18, 19, 20
# shrunken log2 fold change values compiled below
reported.property: shrunken log2 fold change

RRIRLRPPRLPRPRPRPGHNPRP: -0.371
RRIRIRPPRLPRPRPRPCNVPRP: -0.449
RRIRARPPRLPRPRPRPWLLPRP: 0.156
RRIRARPPRLPRPRPRPGRHPRP: 0.159
RRIRGRPPRLPRPRPRPLCWPRP: 0.774
RRIRRRPPRLPRPRPRPCWFPRP: 0.225
RRIRFRPPRLPRPRPRPKVYPRP: -0.382
RRIRVRPPRLPRPRPRPMTQPRP: 0.181
RRIRWRPPRLPRPRPRPVADPRP: 1.07
RRIRFRPPRLPRPRPRPFSIPRP: -0.401
RRIRGRPPRLPRPRPRPTHSPRP: 0.587
RRIRERPPRLPRPRPRPCAKPRP: 0.00616
RRIRNRPPRLPRPRPRPEIEPRP: 0.0339
RRIRCRPPRLPRPRPRPFKEPRP: -0.342
RRIRYRPPRLPRPRPRPNTQPRP: -0.17

* * *

# Tested on: Escherichia coli TOP10
# assay.remarks: shrunken log2 fold change of peptide-encoding DNA abundance (4.5 h post-induction vs induction); higher = less antimicrobial activity (less host growth inhibition)
# experimental.setup: time post-induction: 4.5 h; library: site-saturation at positions 5, 18, 19, 20
# shrunken log2 fold change values compiled below
reported.property: shrunken log2 fold change

RRIRVRPPRLPRPRPRPEARPRP: 0.389
RRIRMRPPRLPRPRPRPHCCPRP: -0.0266
RRIRSRPPRLPRPRPRPISSPRP: -0.0591
RRIRFRPPRLPRPRPRPQYVPRP: -0.368
RRIRDRPPRLPRPRPRPNGHPRP: -0.252
RRIRKRPPRLPRPRPRPDVKPRP: -0.0302
RRIRQRPPRLPRPRPRPPVRPRP: 0.739
RRIRVRPPRLPRPRPRPNAYPRP: -0.572

* * *

# shrunken log2 fold change values compiled below
# Test system: Escherichia coli TOP10
# assay.remarks: shrunken log2 fold change of peptide-encoding DNA abundance (4.5 h post-induction vs induction); higher = less antimicrobial activity (less host growth inhibition)
# experimental.setup: time post-induction: 4.5 h; library: site-saturation at positions 5, 18, 19, 20
reported.property: shrunken log2 fold change

RRIRSRPPRLPRPRPRPQILPRP: -0.0216
RRIRNRPPRLPRPRPRPNRQPRP: -0.156
RRIRQRPPRLPRPRPRPPQQPRP: 0.497
RRIRDRPPRLPRPRPRPDCNPRP: 0.685
RRIRVRPPRLPRPRPRPRYSPRP: -0.911
RRIRGRPPRLPRPRPRPGVSPRP: 0.889
RRIRERPPRLPRPRPRPNCHPRP: -0.336
RRIRQRPPRLPRPRPRPSPKPRP: -0.143
RRIRNRPPRLPRPRPRPGTQPRP: -0.128
RRIRNRPPRLPRPRPRPGFQPRP: -0.0148
RRIRKRPPRLPRPRPRPTIWPRP: 0.319
RRIRARPPRLPRPRPRPHLDPRP: 0.324
RRIRMRPPRLPRPRPRPKMTPRP: 2.7
RRIRSRPPRLPRPRPRPPTQPRP: 0.356
RRIRVRPPRLPRPRPRPPFAPRP: 0.583

* * *

# System: Escherichia coli TOP10
# assay.remarks: shrunken log2 fold change of peptide-encoding DNA abundance (4.5 h post-induction vs induction); higher = less antimicrobial activity (less host growth inhibition)
# experimental.setup: time post-induction: 4.5 h; library: site-saturation at positions 5, 18, 19, 20
Please map values of shrunken log2 fold change to classes as shown: low class: < -0.2; middle class: ≥ -0.2 and < 0.1; high class: ≥ 0.1

RRIRGRPPRLPRPRPRPFWDPRP: high class
RRIRNRPPRLPRPRPRPNKCPRP: low class
RRIRSRPPRLPRPRPRPHQCPRP: low class
RRIRGRPPRLPRPRPRPEFFPRP: high class
RRIRRRPPRLPRPRPRPIVSPRP: low class
RRIRKRPPRLPRPRPRPGTCPRP: high class
RRIRERPPRLPRPRPRPQCTPRP: middle class
RRIRFRPPRLPRPRPRPQIKPRP: low class
RRIRPRPPRLPRPRPRPCWEPRP: middle class
RRIRFRPPRLPRPRPRPNGPPRP: middle class
RRIRKRPPRLPRPRPRPGGVPRP: high class
RRIRPRPPRLPRPRPRPNLCPRP: high class
RRIRRRPPRLPRPRPRPHDGPRP: middle class
RRIRCRPPRLPRPRPRPVSHPRP: middle class

* * *

# System: Escherichia coli TOP10
# assay.remarks: shrunken log2 fold change of peptide-encoding DNA abundance (4.5 h post-induction vs induction); higher = less antimicrobial activity (less host growth inhibition)
# experimental.setup: time post-induction: 4.5 h; library: site-saturation at positions 5, 18, 19, 20
# shrunken log2 fold change values compiled below
reported.property: shrunken log2 fold change

RRIRGRPPRLPRPRPRPCWFPRP: 0.584
RRIRLRPPRLPRPRPRPYDLPRP: -0.0724
RRIRMRPPRLPRPRPRPDIAPRP: 0.0562
RRIRQRPPRLPRPRPRPGSTPRP: -0.146
RRIRWRPPRLPRPRPRPATNPRP: 0.317
RRIRHRPPRLPRPRPRPSRFPRP: 0.0223
RRIRWRPPRLPRPRPRPMPWPRP: 0.0161
RRIRMRPPRLPRPRPRPPSGPRP: 0.525
RRIRPRPPRLPRPRPRPAATPRP: 0.809
RRIRDRPPRLPRPRPRPVESPRP: -0.373
RRIRSRPPRLPRPRPRPLFYPRP: -0.413
RRIRQRPPRLPRPRPRPNNTPRP: -0.578
RRIRQRPPRLPRPRPRPVCFPRP: -0.139
RRIRNRPPRLPRPRPRPWPLPRP: -0.0801
RRIRWRPPRLPRPRPRPNWQPRP: -0.0101
RRIRRRPPRLPRPRPRPTNPPRP: 0.122
RRIRTRPPRLPRPRPRPCTNPRP: -0.0102
RRIRYRPPRLPRPRPRPSHEPRP: -0.0704
RRIRRRPPRLPRPRPRPEKPPRP: 0.376
RRIRDRPPRLPRPRPRPNMCPRP: -0.0431
RRIRWRPPRLPRPRPRPWTTPRP: -0.148
RRIRCRPPRLPRPRPRPLETPRP: -0.012
RRIRKRPPRLPRPRPRPLCLPRP: -0.126
RRIRFRPPRLPRPRPRPDRHPRP: -0.164
RRIRLRPPRLPRPRPRPGDQPRP: 0.0619
RRIRARPPRLPRPRPRPHLSPRP: 0.0969
RRIRARPPRLPRPRPRPRLEPRP: 0.766
RRIRTRPPRLPRPRPRPHDMPRP: 0.000904
RRIRLRPPRLPRPRPRPFKCPRP: 2.83
RRIRPRPPRLPRPRPRPKTNPRP: 0.0176
RRIRRRPPRLPRPRPRPSAWPRP: 0.462
RRIRWRPPRLPRPRPRPMIGPRP: 0.384

* * *

# System: Escherichia coli TOP10
# assay.remarks: shrunken log2 fold change of peptide-encoding DNA abundance (4.5 h post-induction vs induction); higher = less antimicrobial activity (less host growth inhibition)
# experimental.setup: time post-induction: 4.5 h; library: site-saturation at positions 5, 18, 19, 20
reported.property: shrunken log2 fold change

RRIRDRPPRLPRPRPRPRSHPRP: -0.0765
RRIRYRPPRLPRPRPRPTGQPRP: 0.0557
RRIRIRPPRLPRPRPRPVRWPRP: 0.474
RRIRSRPPRLPRPRPRPLPMPRP: 0.256
RRIRRRPPRLPRPRPRPQNSPRP: -0.266
RRIRCRPPRLPRPRPRPAQTPRP: 0.0194
RRIRFRPPRLPRPRPRPWDPPRP: -0.78
RRIRERPPRLPRPRPRPKAQPRP: 0.221
RRIRQRPPRLPRPRPRPSKAPRP: 0.356
RRIRQRPPRLPRPRPRPRFCPRP: -0.16
RRIRMRPPRLPRPRPRPKGYPRP: -0.0135
RRIRIRPPRLPRPRPRPGHGPRP: -0.062
RRIRRRPPRLPRPRPRPFTFPRP: -0.247
RRIRFRPPRLPRPRPRPDYHPRP: -0.935
RRIRYRPPRLPRPRPRPNRIPRP: -0.815

* * *

# System: Escherichia coli TOP10;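 also: peptides expressed intracellularly from a pBAD plasmid library in pooled LB shake-flask culture, induced with 0.3% L-arabinose, DNA abundance read by NGS, three biological replicates, DESeq2 with apeglm shrinkage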
# assay.remarks: shrunken log2 fold change of peptide-encoding DNA abundance (4.5 h post-induction vs induction); higher = less antimicrobial activity (less host growth inhibition)
# experimental.setup: time post-induction: 4.5 h; library: site-saturation at positions 5, 18, 19, 20
Label scheme for shrunken log2 fold change: lower than -0.05 is false, -0.05 and above is true.

RRIRGRPPRLPRPRPRPDTEPRP: false
RRIRQRPPRLPRPRPRPKPNPRP: true
RRIRGRPPRLPRPRPRPHHWPRP: true
RRIRNRPPRLPRPRPRPRSWPRP: true
RRIRCRPPRLPRPRPRPWDMPRP: false
RRIRCRPPRLPRPRPRPHIYPRP: false
RRIRPRPPRLPRPRPRPNFDPRP: true
RRIRKRPPRLPRPRPRPLPTPRP: true
RRIRPRPPRLPRPRPRPDLAPRP: true
RRIRDRPPRLPRPRPRPWMFPRP: false
RRIRFRPPRLPRPRPRPLVEPRP: false
RRIRDRPPRLPRPRPRPQWMPRP: false
RRIRGRPPRLPRPRPRPDCQPRP: true
RRIRARPPRLPRPRPRPWSVPRP: true
RRIRKRPPRLPRPRPRPFFRPRP: true
RRIRARPPRLPRPRPRPNGHPRP: true
RRIRERPPRLPRPRPRPWGEPRP: false
RRIRMRPPRLPRPRPRPLDMPRP: true
RRIRSRPPRLPRPRPRPKPVPRP: true
RRIRRRPPRLPRPRPRPSNSPRP: false
RRIRDRPPRLPRPRPRPLNIPRP: false
RRIRDRPPRLPRPRPRPASMPRP: true
RRIRCRPPRLPRPRPRPICKPRP: true
RRIRYRPPRLPRPRPRPNCTPRP: false
RRIRDRPPRLPRPRPRPWLTPRP: true
RRIRHRPPRLPRPRPRPERPPRP: true
RRIRYRPPRLPRPRPRPNSMPRP: false
RRIRLRPPRLPRPRPRPVFHPRP: false
RRIRTRPPRLPRPRPRPKSGPRP: true
RRIRKRPPRLPRPRPRPREMPRP: false
RRIRQRPPRLPRPRPRPLVLPRP: true
RRIRFRPPRLPRPRPRPNCCPRP: true
